# Test system: p-phenylquinone-induced writhing
# assayInfo: p-phenylquinone-induced writhing test (analgesic activity)
# Format: in vivo
# experimentalParameters: os, 10 mg/kg, an hour after administration
measure: Protection % (%)
Express it in %; write the number only.

[in] Returns the measured Protection % for the input compound. Input: Cc1ccc(C(=O)c2ccc(CC(=O)NCC(=O)Nc3cccc(C)c3C)n2C)cc1
[out] 42.1

[in] Next compound up: COc1ccccc1NC(=O)CNC(=O)Cc1ccc(C(=O)c2ccc(C)cc2)n1C
[out] 54.2

[in] Next compound up: COc1ccc(OC)c(NC(=O)CNC(=O)Cc2ccc(C(=O)c3ccc(C)cc3)n2C)c1
[out] 50.3

[in] Next compound up: Cc1ccc(C(=O)c2ccc(CC(=O)O)n2C)cc1 [Tolmetin Na.2H2 O, reference compound]
[out] 40.6

[in] Next compound up: Cc1ccc(C(=O)c2ccc(CC(=O)NCC(=O)Nc3cccc(Cl)c3)n2C)cc1
[out] 36.2

----------
Task for the reader: assign each of the following compounds its reported Oedema inhibition %.
# Test system: carragenin-induced edema
# assayInfo: carragenin-induced edema test (antinflammatory activity)
# Format: in vivo, rats
# experimentalParameters: i.p., 100 mg/kg, 6 h
Express it in %; write the number only.

[in] Returns the measured Oedema inhibition % for the input compound. Input: Cc1ccc(C(=O)c2ccc(CC(=O)NCC(=O)Nc3cccc(C)c3C)n2C)cc1
[out] 70.0

[in] Next compound up: COc1ccccc1NC(=O)CNC(=O)Cc1ccc(C(=O)c2ccc(C)cc2)n1C
[out] 66.3

[in] Next compound up: Cc1ccc(C(=O)c2ccc(CC(=O)O)n2C)cc1 [Tolmetin Na.2H2 O, reference compound]
[out] 52.2

[in] Next compound up: COc1ccc(OC)c(NC(=O)CNC(=O)Cc2ccc(C(=O)c3ccc(C)cc3)n2C)c1
[out] 71.5

[in] Next compound up: Cc1ccc(C(=O)c2ccc(CC(=O)NCC(=O)Nc3cccc(Cl)c3)n2C)cc1
[out] 62.0

----------
# Tested on: p-phenylquinone-induced writhing
# assayInfo: p-phenylquinone-induced writhing test (analgesic activity)
# Type: in vivo
# experimentalParameters: os, 20 mg/kg, an hour after administration
measure: Protection % (%)
Express it in %; write the number only.

[in] Returns the measured Protection % for the input compound. Input: COc1ccc(OC)c(NC(=O)CNC(=O)Cc2ccc(C(=O)c3ccc(C)cc3)n2C)c1
[out] 76.0

[in] Next compound up: Cc1ccc(C(=O)c2ccc(CC(=O)NCC(=O)Nc3cccc(C)c3C)n2C)cc1
[out] 70.3

[in] Next compound up: Cc1ccc(C(=O)c2ccc(CC(=O)NCC(=O)Nc3cccc(Cl)c3)n2C)cc1
[out] 69.1

[in] Next compound up: COc1ccccc1NC(=O)CNC(=O)Cc1ccc(C(=O)c2ccc(C)cc2)n1C
[out] 70.1

[in] Next compound up: Cc1ccc(C(=O)c2ccc(CC(=O)O)n2C)cc1 [Tolmetin Na.2H2 O, reference compound]
[out] 62.0

----------
Task for the reader: assign each of the following compounds its reported Oedema inhibition %.
# Test system: carragenin-induced edema
# assayInfo: carragenin-induced edema test (antinflammatory activity)
# Type: in vivo, rats
# experimentalParameters: os, 50 mg/kg, 6 h
Express it in %; write the number only.

[in] Returns the measured Oedema inhibition % for the input compound. Input: COc1ccccc1NC(=O)CNC(=O)Cc1ccc(C(=O)c2ccc(C)cc2)n1C
[out] 54.0

[in] Next compound up: COc1ccc(OC)c(NC(=O)CNC(=O)Cc2ccc(C(=O)c3ccc(C)cc3)n2C)c1
[out] 49.0

[in] Next compound up: Cc1ccc(C(=O)c2ccc(CC(=O)NCC(=O)Nc3cccc(Cl)c3)n2C)cc1
[out] 44.1

[in] Next compound up: Cc1ccc(C(=O)c2ccc(CC(=O)O)n2C)cc1 [Tolmetin Na.2H2 O, reference compound]
[out] 45.0

[in] Next compound up: Cc1ccc(C(=O)c2ccc(CC(=O)NCC(=O)Nc3cccc(C)c3C)n2C)cc1
[out] 49.0
